All values here come from ChEMBL document CHEMBL1141376.

target-or-system: UniProt:P29274
Sequence (P29274 whole entry): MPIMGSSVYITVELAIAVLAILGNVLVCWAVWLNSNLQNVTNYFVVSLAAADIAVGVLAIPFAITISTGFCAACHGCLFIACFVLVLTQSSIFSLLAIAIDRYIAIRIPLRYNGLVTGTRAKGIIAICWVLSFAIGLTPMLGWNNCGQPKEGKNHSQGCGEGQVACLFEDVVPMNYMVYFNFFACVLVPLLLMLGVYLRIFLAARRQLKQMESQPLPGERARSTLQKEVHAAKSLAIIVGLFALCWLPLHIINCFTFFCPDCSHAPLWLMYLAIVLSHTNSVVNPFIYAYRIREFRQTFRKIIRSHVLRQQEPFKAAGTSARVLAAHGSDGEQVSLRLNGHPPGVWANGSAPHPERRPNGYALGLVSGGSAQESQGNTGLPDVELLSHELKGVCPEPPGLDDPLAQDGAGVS
experimental-protocol: Activity at human adenosine A2A receptor assessed as stimulation of [3H]cAMP accumulation in CHO cells
measurement-type: EC50 (nM)
Respond numerically; units are nM and should not be typed.

Qu. Look up EC50 of CCNC(=O)[C@H]1O[C@@H](n2cnc3c(NCCCCNC(=O)CCCCCNC(=O)COc4ccc(/C=C/C5=[N+]6C(=Cc7ccc(-c8cccs8)n7[B-]6(F)F)C=C5)cc4)ncnc32)[C@H](O)[C@@H]1O and report it.
Ans. 174

====

We begin with a simple list: items and their reported inhibition.
target-or-system: Adenosine receptor A1 (Homo sapiens) (UniProt P30542)
Sequence (P30542 whole entry): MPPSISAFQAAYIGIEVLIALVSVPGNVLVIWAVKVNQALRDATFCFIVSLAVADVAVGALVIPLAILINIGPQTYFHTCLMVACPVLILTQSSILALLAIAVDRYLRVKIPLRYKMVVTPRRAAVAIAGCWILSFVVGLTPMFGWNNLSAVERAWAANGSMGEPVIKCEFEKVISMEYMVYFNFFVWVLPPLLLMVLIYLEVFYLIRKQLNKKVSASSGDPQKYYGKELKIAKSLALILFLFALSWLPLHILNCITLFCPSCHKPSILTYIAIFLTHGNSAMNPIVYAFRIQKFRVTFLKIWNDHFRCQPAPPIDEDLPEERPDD
experimental-protocol: Agonist activity at adenosine A1 receptor assessed as inhibition of forskolin-stimulated [3H]cAMP accumulation in CHO cells
Format: functional, cell-based
conditions-used: concentration not given here
Respond numerically; units are % and should not be typed.

Here are 5 molecules together with their reported answers.
1) CCNC(=O)[C@H]1O[C@@H](n2cnc3c(N)ncnc32)[C@H](O)[C@@H]1O: 98
2) CCNC(=O)[C@H]1O[C@@H](n2cnc3c(NCCCCCNC(=O)CCCCCNC(=O)COc4ccc(/C=C/C5=[N+]6C(=Cc7ccc(-c8cccs8)n7[B-]6(F)F)C=C5)cc4)ncnc32)[C@H](O)[C@@H]1O: 96
3) O=C(CCCCCNC(=O)COc1ccc(/C=C/C2=[N+]3C(=Cc4ccc(-c5cccs5)n4[B-]3(F)F)C=C2)cc1)NCCCCNc1ncnc2c1ncn2[C@@H]1O[C@H](CO)[C@@H](O)[C@H]1O: 96
4) CCNC(=O)[C@H]1O[C@@H](n2cnc3c(NCCCCNC(=O)CCCCCNC(=O)COc4ccc(/C=C/C5=[N+]6C(=Cc7ccc(-c8cccs8)n7[B-]6(F)F)C=C5)cc4)ncnc32)[C@H](O)[C@@H]1O: 99
5) CCNC(=O)[C@H]1O[C@@H](n2cnc3c(NCCCCCCCCNC(=O)CCCCCNC(=O)COc4ccc(/C=C/C5=[N+]6C(=Cc7ccc(-c8cccs8)n7[B-]6(F)F)C=C5)cc4)ncnc32)[C@H](O)[C@@H]1O: 77

Here's the next entry for you.
Qu. Look up inhibition of CCNC(=O)[C@H]1O[C@@H](n2cnc3c(NCCCNC(=O)CCCCCNC(=O)COc4ccc(/C=C/C5=[N+]6C(=Cc7ccc(-c8cccs8)n7[B-]6(F)F)C=C5)cc4)ncnc32)[C@H](O)[C@@H]1O and report it.
Ans. 92
